All values here come from PubChem BioAssay AID1417.

# maps each entry to its IC50
biological target: Induced myeloid leukemia cell differentiation protein Mcl-1 (Homo sapiens) (UniProt Q07820); assay: Mcl-1/Noxa binding inhibitor potency, dose response, biochemical, TR-FRET (AID 1417); conditions: Mcl-1/Noxa peptide interaction, cell-free TR-FRET (terbium/rhodamine), 2 h; measured here: absolute IC50
Sequence (Q07820 whole entry, looked up): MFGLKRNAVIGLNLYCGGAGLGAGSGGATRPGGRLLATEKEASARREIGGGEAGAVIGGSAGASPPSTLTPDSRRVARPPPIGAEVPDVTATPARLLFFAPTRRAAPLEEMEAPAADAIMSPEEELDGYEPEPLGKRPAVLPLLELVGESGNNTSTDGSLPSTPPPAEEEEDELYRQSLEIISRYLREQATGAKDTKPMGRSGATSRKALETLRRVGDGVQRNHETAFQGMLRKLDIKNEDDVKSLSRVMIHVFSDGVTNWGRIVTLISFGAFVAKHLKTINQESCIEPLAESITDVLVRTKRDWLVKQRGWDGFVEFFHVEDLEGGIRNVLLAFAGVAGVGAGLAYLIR

input: # input molecule: "Oc1ccc(/C=N/N=C(c2ccccc2)c2ccccc2)c(O)c1O" ; wanted: its IC50
output: < 0.4 µM

input: # input molecule: "CC(=O)c1ccc(-n2c(CCC(=O)O)ccc2-c2cccs2)cc1" ; wanted: its IC50
output: > 54 µM

input: # input molecule: "Cc1ccc(C(=O)Nc2ccc(N3CCCC3)cc2)c(C)c1" ; wanted: its IC50
output: > 54 µM

input: # input molecule: "CSc1nc(SCCO)c2sc3nc(-c4ccco4)c4c(c3c2n1)CC(C)(C)OC4" ; wanted: its IC50
output: < 0.4 µM
